Molecular target: Gonadotropin-releasing hormone receptor (Homo sapiens, UniProt P30968)
Sequence (P30968 whole entry): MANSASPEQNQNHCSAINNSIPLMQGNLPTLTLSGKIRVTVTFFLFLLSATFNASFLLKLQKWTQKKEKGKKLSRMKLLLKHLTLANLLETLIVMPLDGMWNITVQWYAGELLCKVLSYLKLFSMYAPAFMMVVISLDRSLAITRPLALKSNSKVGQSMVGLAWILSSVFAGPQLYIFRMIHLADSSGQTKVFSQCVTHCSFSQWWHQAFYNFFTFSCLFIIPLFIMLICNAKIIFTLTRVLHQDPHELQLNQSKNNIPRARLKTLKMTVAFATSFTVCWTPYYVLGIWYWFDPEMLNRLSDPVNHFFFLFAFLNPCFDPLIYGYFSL
endpointName: pIC50
Answers are plain numbers, as −log10 of the molar value.

For the molecule Cc1cc(C)cc(-c2c(OCC[C@@H]3CCC[C@@H](C)N3)c3cc(C(=O)Nc4ccncn4)c(Cl)cc3[nH]c2=O)c1 , what pIC50 is on record?
9.30
